Entries and their pEC50 values follow.
biological target: Glucokinase (Homo sapiens); assay: Glucokinase activation assay (NADPH absorbance at 340 nm); conditions: glucokinase (ProteinOne Inc.), 5 mM D(+)-glucose, 24° C., 90 minutes
Sequence (P35557 whole entry, species assumed): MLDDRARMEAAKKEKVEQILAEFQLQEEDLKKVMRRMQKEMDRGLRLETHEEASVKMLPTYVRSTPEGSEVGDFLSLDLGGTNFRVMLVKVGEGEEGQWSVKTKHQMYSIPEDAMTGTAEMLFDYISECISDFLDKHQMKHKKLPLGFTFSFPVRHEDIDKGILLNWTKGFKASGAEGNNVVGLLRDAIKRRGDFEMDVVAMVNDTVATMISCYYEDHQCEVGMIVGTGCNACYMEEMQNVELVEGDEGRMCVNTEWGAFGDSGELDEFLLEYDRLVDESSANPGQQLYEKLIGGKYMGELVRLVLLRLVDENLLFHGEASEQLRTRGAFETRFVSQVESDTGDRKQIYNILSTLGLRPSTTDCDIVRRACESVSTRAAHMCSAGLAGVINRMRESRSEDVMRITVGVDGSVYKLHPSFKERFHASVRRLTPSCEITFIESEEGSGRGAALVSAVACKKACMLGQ
Please treat pEC50 as minus the base-10 logarithm of the molar concentration.

Bench note: what pEC50 did COC[C@H](C)Oc1cc(/C=C/c2ccc(F)cc2F)cc(C(=O)Nc2ccc(C(=O)O)cn2)c1 [Example 79] show?
7.02

Bench note: what pEC50 did COC[C@H](C)Oc1cc(CCc2ccc(NC(=O)c3ccncc3)cc2)cc(C(=O)Nc2nccs2)c1 [Example 142] show?
6.45

Bench note: what pEC50 did CCOC(=O)CC(=O)Nc1cccc(CCc2cc(O[C@@H](C)COC)cc(C(=O)Nc3nccs3)c2)c1 [Example 121] show?
6.77

Bench note: what pEC50 did Cc1ccc(/C=C/c2cc(OCC(C)C)cc(C(=O)Nc3nccs3)c2)cc1 [Example 1] show?
6.79

Bench note: what pEC50 did COC[C@H](C)Oc1cc(/C=C/c2cccc(F)c2F)cc(C(=O)Nc2ccc(C(=O)OC)cn2)c1 [Example 66] show?
6.41

Bench note: what pEC50 did COC[C@H](C)Oc1cc(/C=C/c2ccc(F)cc2F)cc(C(=O)Nc2ccc(C(=O)OC)cn2)c1 [Example 67] show?
6.64

Bench note: what pEC50 did COC[C@H](C)Oc1cc(CCc2cccc(N)c2)cc(C(=O)Nc2ccn(C)n2)c1 [Example 97] show?
6.38

Bench note: what pEC50 did COC[C@H](C)Oc1cc(/C=C/c2cc(F)ccc2F)cc(C(=O)Nc2ccc(C(=O)OC)cn2)c1 [Example 68] show?
6.45

Bench note: what pEC50 did COC[C@H](C)Oc1cc(/C=C/c2c(F)cccc2F)cc(C(=O)Nc2ccc(C(=O)OC)cn2)c1 [Example 69] show?
6.84

Bench note: what pEC50 did COC[C@H](C)Oc1cc(/C=C/c2cccc([N+](=O)[O-])c2)cc(C(=O)Nc2ccn(C)n2)c1 [Example 38] show?
6.62

* * *

Entries and their EC50 values follow.
molecular target: UniProt P35557; test: Glucokinase activation assay (NADPH absorbance at 340 nm); conditions: glucokinase (ProteinOne Inc.), 5 mM D(+)-glucose, 24° C., 90 minutes
Lab book: enter the figure in nM, no units written.

In the examples that follow, each entry is paired with its recorded EC50.
compound	test.system	quantity.unit	EC50
COC[C@H](C)Oc1cc(/C=C/c2c(F)cccc2F)cc(C(=O)Nc2ccc(C(=O)O)cn2)c1 [Example 81]	UniProt P35557	nM	89.8
COC[C@H](C)Oc1cc(/C=C/c2cccc([N+](=O)[O-])c2)cc(C(=O)Nc2ccc(C(=O)O)cn2)c1 [Example 75]	UniProt P35557	nM	165

Lab note: need EC50 for CCOC(=O)Nc1ccccc1CCc1cc(O[C@@H](C)COC)cc(C(=O)Nc2nccs2)c1 [Example 117] on UniProt P35557, anyone have it?
229
